tested on: TNFα; experiment: Cot Monocyte TNFα Cell Based Assay; conditions: Homo sapiens, Monocyte, read-out: EC50 TNF, LPS-stimulated human monocytes, TNFα TR-FRET
pEC50: −log10 of the molar value.
property label: pEC50

compound=CC(C)(CNc1c(C#N)cnc2c(Cl)cc(N[C@H](c3cn(C45CC(C4)C5)nn3)c3ccc(F)c4ncccc34)cc12)C(F)(F)F measured=7.51
compound=CC(C)(C)CNc1c(C#N)cnc2c(C#N)cc(N[C@H](c3cn(C4(C(F)(F)F)CC4)nn3)c3cccc4cnc(C#N)cc34)cc12 measured=6.94
compound=COc1c([C@@H](Nc2cc(Cl)c3ncc(C#N)c(NCC(C)(C)C)c3c2)c2ccc(F)nc2C)nnn1C1(C(F)F)CC1 measured=7.11
